Catalogue of Mean % WT Binding values
# measured_target: human CD33 variant K52Y (human, UniProt P20138 18-364)
# Sequence (P20138 18-364 K52Y limits assumed): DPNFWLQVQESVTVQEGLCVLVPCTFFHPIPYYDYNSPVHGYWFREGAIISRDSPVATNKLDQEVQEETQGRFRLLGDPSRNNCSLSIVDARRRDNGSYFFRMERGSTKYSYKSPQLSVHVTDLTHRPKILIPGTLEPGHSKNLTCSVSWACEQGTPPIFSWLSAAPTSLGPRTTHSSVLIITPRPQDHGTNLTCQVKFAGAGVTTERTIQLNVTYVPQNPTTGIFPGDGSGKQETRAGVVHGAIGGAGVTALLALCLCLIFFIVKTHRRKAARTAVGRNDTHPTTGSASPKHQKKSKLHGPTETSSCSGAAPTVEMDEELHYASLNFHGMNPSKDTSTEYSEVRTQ
# protocol: flow cytometry, IgG on cells expressing the mutant

These recorded examples may help you get a feel for the data.
>>> meas_value("Refmab #2 (antibody, human IgG1, V domains shown, Tested in IgG format; human IgG1 Fc silent (PG-LALA)) VH: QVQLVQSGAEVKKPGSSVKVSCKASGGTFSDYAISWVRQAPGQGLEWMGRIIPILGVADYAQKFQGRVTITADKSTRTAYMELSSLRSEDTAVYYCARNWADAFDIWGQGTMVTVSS VL: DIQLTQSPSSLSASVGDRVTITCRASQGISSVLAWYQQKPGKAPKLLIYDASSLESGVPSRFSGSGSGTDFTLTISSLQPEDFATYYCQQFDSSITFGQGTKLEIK")
"21 % of WT"
>>> meas_value("Refmab #4 (antibody, human IgG1, V domains shown, Tested in IgG format; human IgG1 Fc silent (PG-LALA)) VH: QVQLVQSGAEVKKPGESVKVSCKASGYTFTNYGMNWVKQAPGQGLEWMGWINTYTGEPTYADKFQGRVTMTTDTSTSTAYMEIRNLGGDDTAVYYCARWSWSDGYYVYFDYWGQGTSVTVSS VL: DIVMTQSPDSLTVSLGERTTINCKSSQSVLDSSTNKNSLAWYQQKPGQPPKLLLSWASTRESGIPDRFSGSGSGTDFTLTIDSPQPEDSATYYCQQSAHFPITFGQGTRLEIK")
"20.7 % of WT"
>>> meas_value("Refmab #3 (antibody, human IgG1, V domains shown, Tested in IgG format; human IgG1 Fc silent (PG-LALA)) VH: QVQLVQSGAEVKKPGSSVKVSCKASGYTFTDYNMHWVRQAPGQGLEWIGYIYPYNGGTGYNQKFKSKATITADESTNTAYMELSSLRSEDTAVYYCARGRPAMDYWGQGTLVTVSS VL: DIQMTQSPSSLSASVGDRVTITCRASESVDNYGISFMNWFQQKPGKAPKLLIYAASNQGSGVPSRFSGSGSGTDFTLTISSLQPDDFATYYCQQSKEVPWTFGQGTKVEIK")
"41.7 % of WT"

Could you now consider this next binder?
Query :: // returns reported Mean % WT Binding for input Refmab #1 (antibody, human IgG1, V domains shown, Tested in IgG format; human IgG1 (Absolute Antibody hP67.6, Cat. No. Ab00283-10.0); also called hP67.6) VH: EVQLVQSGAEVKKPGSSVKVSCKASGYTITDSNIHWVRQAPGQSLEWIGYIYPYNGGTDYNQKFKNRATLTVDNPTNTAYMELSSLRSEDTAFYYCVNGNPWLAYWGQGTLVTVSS VL: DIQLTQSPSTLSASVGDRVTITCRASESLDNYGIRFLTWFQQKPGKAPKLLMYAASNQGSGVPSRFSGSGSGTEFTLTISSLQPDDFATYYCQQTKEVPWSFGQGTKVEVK
Result :: 45 % of WT
